// data source = patent US8871753B2

# Assay target: human JAK2 (a.a. 828-1132) (Homo sapiens, UniProt O60674)
# Construct: JAK2 (a.a. 828-1132); His tag (N); made in house; host or cells: insect cells (baculovirus)
# Sequence (O60674 828-1132): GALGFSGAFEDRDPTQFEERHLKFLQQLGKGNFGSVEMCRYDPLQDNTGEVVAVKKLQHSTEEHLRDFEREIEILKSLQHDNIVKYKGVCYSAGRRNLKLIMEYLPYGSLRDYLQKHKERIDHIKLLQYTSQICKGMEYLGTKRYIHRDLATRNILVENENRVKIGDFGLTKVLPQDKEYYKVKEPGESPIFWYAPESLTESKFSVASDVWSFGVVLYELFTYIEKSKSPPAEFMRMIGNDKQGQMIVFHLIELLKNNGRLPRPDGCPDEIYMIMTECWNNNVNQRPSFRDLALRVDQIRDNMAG
# Procedure text: In vitro JAK kinase assay (HTRF, phosphorylation of a biotinylated peptide), JAK2
# Assay type: biochemical
# Experimental context: Table D1
Where a name gives a salt, the structure may show the parent alone.
Listed below: pIC50 values for each entry.
pIC50 is a log-scale quantity: -log10 of the concentration expressed in molar.

Example results:
Compound	Assay target	Recorded value
Cn1cncc1C(=O)N1CC[C@H](CC(=O)Nc2ccc3cc2CCc2cncc(c2)Nc2ncc(Cl)c(n2)N3)C1 [Example D111, tris(trifluoroacetate)]	human JAK2 (a.a. 828-1132) (Homo sapiens, UniProt O60674)	6.16
O=c1[nH]c2cc3cc(c2o1)CCc1cccc(c1)Nc1ncc(Cl)c(n1)N3	human JAK2 (a.a. 828-1132) (Homo sapiens, UniProt O60674)	8.55
N#Cc1ccccc1S(=O)(=O)N1CCN(C(=O)COc2ccc3cc2CCc2cncc(c2)Nc2ncc(Cl)c(n2)N3)CC1 [Example D254, bis(trifluoroacetate)]	human JAK2 (a.a. 828-1132) (Homo sapiens, UniProt O60674)	7.31
Clc1cnc2nc1Nc1cccc(c1)OCCc1cc(cc(-c3cccnc3)c1)N2 [Example D26, bis(trifluoroacetate)]	human JAK2 (a.a. 828-1132) (Homo sapiens, UniProt O60674)	9.22

Continue with the compound presented below.
# input State the measured pIC50 (human JAK2 (a.a. 828-1132) (Homo sapiens, UniProt O60674)) of O=C(C[C@@H]1CCCN(C(=O)c2ccccc2)C1)Nc1ccc2cc1CCc1cccc(c1)Nc1ncc(Cl)c(n1)N2 [Example D202, trifluoroacetate]
# output 7.92

* * *

Listed below: pIC50 values for each entry.
# Assay target: human JAK1 (a.a. 837-1142) (Homo sapiens)
# Construct: human JAK1 (a.a. 837-1142); His tag (N); made in house; host or cells: insect cells (baculovirus)
# Sequence (P23458 849-1154): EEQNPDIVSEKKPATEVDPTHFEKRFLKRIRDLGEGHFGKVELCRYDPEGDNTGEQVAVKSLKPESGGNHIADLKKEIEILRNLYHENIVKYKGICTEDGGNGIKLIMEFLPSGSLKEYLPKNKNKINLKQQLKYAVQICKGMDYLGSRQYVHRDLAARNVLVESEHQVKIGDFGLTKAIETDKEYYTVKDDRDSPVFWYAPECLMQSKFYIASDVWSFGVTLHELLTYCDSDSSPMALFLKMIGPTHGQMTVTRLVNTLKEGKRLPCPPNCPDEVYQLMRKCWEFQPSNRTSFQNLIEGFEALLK
# Procedure text: In vitro JAK kinase assay (HTRF, phosphorylation of a biotinylated peptide), JAK1
# Type: biochemical
# Experimental context: Table B1; read-out: JAK1 IC50
Counter-ions that a name gives are not always drawn.
pIC50 is a log-scale quantity: -log10 of the concentration expressed in molar.

Compound	pIC50
CCCS(=O)(=O)NCCNC(=O)Nc1ccc2cc1CCc1cccc(c1)Nc1ncc(Cl)c(n1)N2 [Example B326, trifluoroacetate]	8.52
Clc1cnc2nc1Nc1cc(cc(CN3CCNCC3)c1)CCc1cccc(c1)N2 [Example B191, dihydrochloride]	7.03
CC(=O)Nc1ccc(S(=O)(=O)Nc2ccc3cc2CCc2cccc(c2)Nc2ncc(Cl)c(n2)N3)cc1 [Example B161, trifluoroacetate]	8.80
CCOc1ccccc1NC(=O)Nc1ccc2cc1CCc1cccc(c1)Nc1ncc(Cl)c(n1)N2 [Example B106, trifluoroacetate]	8.37
CC(=O)NCCNC(=O)Nc1ccc2cc1CCc1cccc(c1)Nc1ncc(Cl)c(n1)N2 [Example B186, trifluoroacetate]	8.40
O=C(Nc1ccc2cc1CCc1cncc(c1)Nc1ncc(Cl)c(n1)N2)N1CCC(c2ccccc2)C1 (stereo not shown) [Example B312, bis(trifluoroacetate)]	8.30

Continue with the compound presented below.
# input // Input: Nc1ccc2cc1CCc1cncc(c1)Nc1ncc(Cl)c(n1)N2 [Example B20, tris(trifluoroacetate)] . Output its pIC50 only.
# output 9.00
